- TARGET DESC: T1, collagenase 1 (UniProt P03956 100-469, limits assumed)
- T1 sequence (looked up): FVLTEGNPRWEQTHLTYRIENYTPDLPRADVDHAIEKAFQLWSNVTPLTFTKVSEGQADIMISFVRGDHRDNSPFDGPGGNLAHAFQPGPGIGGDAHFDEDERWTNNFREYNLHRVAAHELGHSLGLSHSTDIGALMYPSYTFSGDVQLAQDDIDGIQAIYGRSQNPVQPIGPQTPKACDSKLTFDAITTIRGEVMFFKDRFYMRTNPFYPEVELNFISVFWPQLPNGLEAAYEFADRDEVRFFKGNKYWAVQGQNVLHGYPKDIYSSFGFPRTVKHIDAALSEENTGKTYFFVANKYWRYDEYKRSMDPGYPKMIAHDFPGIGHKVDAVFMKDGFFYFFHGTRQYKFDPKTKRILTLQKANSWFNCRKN
- TEST DESCRIPTION: cell-based or functional assay
*1 amine or outer side, *2 acyl side, *3 side chain or, on linkers, in order; H or OH if unused. [ ]: non-standard residue; d: D form. The star is where a group is joined. Dnp = O=[N+]([O-])c1ccc(*)c([N+](=O)[O-])c1; C(Me) = CSC[C@H](N[*:1])C(=O)[*:2]
Threshold rule: Selectivity v. Coll-3 greater than or equal to 500 unitless is t; below that, f.

BINDER: Dnp-GPLGLHV[C(Me)]-NH2 (SMILES CSC[C@H](NC(=O)[C@@H](NC(=O)[C@H](Cc1c[nH]cn1)NC(=O)[C@H](CC(C)C)NC(=O)CNC(=O)[C@H](CC(C)C)NC(=O)[C@@H]1CCCN1C(=O)CNc1ccc([N+](=O)[O-])cc1[N+](=O)[O-])C(C)C)C(N)=O) [Dnp-GPLGLHVC(Me)-NH2]
CLASS NAME: f
//
BINDER: Dnp-GPHPFRG-NH2 (SMILES N=C(N)NCCC[C@H](NC(=O)[C@H](Cc1ccccc1)NC(=O)[C@@H]1CCCN1C(=O)[C@H](Cc1c[nH]cn1)NC(=O)[C@@H]1CCCN1C(=O)CNc1ccc([N+](=O)[O-])cc1[N+](=O)[O-])C(=O)NCC(N)=O) [Dnp-GPHPFRG-NH2]
CLASS NAME: t
//
BINDER: Dnp-GPVNLHG-NH2 (SMILES CC(C)C[C@H](NC(=O)[C@H](CC(N)=O)NC(=O)[C@@H](NC(=O)[C@@H]1CCCN1C(=O)CNc1ccc([N+](=O)[O-])cc1[N+](=O)[O-])C(C)C)C(=O)N[C@@H](Cc1c[nH]cn1)C(=O)NCC(N)=O) [Dnp-GPVNLHG-NH2]
CLASS NAME: f
//
BINDER: Dnp-GPAPLHV[C(Me)]-NH2 (SMILES CSC[C@H](NC(=O)[C@@H](NC(=O)[C@H](Cc1c[nH]cn1)NC(=O)[C@H](CC(C)C)NC(=O)[C@@H]1CCCN1C(=O)[C@H](C)NC(=O)[C@@H]1CCCN1C(=O)CNc1ccc([N+](=O)[O-])cc1[N+](=O)[O-])C(C)C)C(N)=O) [Dnp-GPAPLHVC(Me)-NH2]
CLASS NAME: f
//
BINDER: Dnp-GPLSISG-NH2 (SMILES CC[C@H](C)[C@H](NC(=O)[C@H](CO)NC(=O)[C@H](CC(C)C)NC(=O)[C@@H]1CCCN1C(=O)CNc1ccc([N+](=O)[O-])cc1[N+](=O)[O-])C(=O)N[C@@H](CO)C(=O)NCC(N)=O) [Dnp-GPLSISG-NH2]
CLASS NAME: f
//
BINDER: Dnp-GPLGLHG[C(Me)]-NH2 (SMILES CSC[C@H](NC(=O)CNC(=O)[C@H](Cc1c[nH]cn1)NC(=O)[C@H](CC(C)C)NC(=O)CNC(=O)[C@H](CC(C)C)NC(=O)[C@@H]1CCCN1C(=O)CNc1ccc([N+](=O)[O-])cc1[N+](=O)[O-])C(N)=O) [Dnp-GPLGLHGC(Me)-NH2]
CLASS NAME: t

The reported measurements were obtained from patent US20030229005A1.
